Biological target: MgCA (Malassezia globosa)
Construct: gene MGL_1814
Sequence (A8Q1N3 1-241): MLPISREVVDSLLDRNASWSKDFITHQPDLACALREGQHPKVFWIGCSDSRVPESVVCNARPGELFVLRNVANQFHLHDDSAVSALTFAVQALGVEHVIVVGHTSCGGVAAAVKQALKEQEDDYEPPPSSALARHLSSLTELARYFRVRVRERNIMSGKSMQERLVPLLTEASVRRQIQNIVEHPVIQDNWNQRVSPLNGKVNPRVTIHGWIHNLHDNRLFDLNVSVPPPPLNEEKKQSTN
Test: stopped-flow CO2 hydrase assay
Assay type: biochemical
pKi: −log10 of the molar value.
pKi below 6 gives not fulfilled; pKi at or above it gives fulfilled.

compound="NS(=O)(=O)c1ccc(CCNC(=[Se])Nc2ccc3ccccc3c2)cc1 [5h]" class_name=fulfilled
compound="CC(=O)Oc1ccccc1C(=O)NC(=[Se])Nc1ccc(S(N)(=O)=O)cc1 [7d]" class_name="not fulfilled"
compound="NS(=O)(=O)c1ccc(O)c(NC(=[Se])NC(=O)c2ccc(Br)cc2F)c1 [11g]" class_name="not fulfilled"
compound="NS(=O)(=O)c1cccc(NC(=[Se])NC(=O)c2ccc(F)cc2)c1 [8d]" class_name="not fulfilled"
compound="NS(=O)(=O)c1ccc(CCNC(=[Se])NC(=O)c2ccc3c(c2)OCO3)cc1 [9c]" class_name="not fulfilled"
compound="NS(=O)(=O)c1ccc(NC(=[Se])Nc2ccccc2)cc1 [3a]" class_name=fulfilled
compound="O=C(NC(=[Se])Nc1ccc(S(=O)(=O)Nc2nccs2)cc1)c1ccc(Cl)cc1 [10g]" class_name="not fulfilled"
compound="NS(=O)(=O)c1cccc(NC(=[Se])NC(=O)c2ccc(Br)cc2F)c1 [8g]" class_name="not fulfilled"
compound="NS(=O)(=O)c1ccc(O)c(NC(=[Se])NC(=O)c2ccc(Cl)cc2)c1 [11f]" class_name="not fulfilled"
compound="NS(=O)(=O)c1ccc(NC(=[Se])Nc2ccc(F)cc2)cc1 [3b]" class_name=fulfilled
compound="CC(=O)Oc1ccccc1C(=O)NC(=[Se])Nc1cc(S(N)(=O)=O)ccc1O [11e]" class_name="not fulfilled"
compound="NS(=O)(=O)c1ccc(O)c(NC(=[Se])NC(=O)c2ccccc2)c1 [11a]" class_name="not fulfilled"
compound="NS(=O)(=O)c1ccc(NC(=[Se])NC(=O)c2cc(Br)cc(OC(F)(F)F)c2)cc1 [7c]" class_name="not fulfilled"
compound="NS(=O)(=O)c1ccc(O)c(NC(=[Se])NC(=O)c2ccc([N+](=O)[O-])cc2)c1 [11c]" class_name="not fulfilled"
compound="NS(=O)(=O)c1ccc(CCNC(=[Se])NC(=O)c2ccc(/N=N/c3ccccc3)cc2)cc1 [9f]" class_name="not fulfilled"
compound="NS(=O)(=O)c1ccc(NC(=[Se])NC(=O)c2ccc([N+](=O)[O-])cc2)cc1 [7f]" class_name="not fulfilled"
compound="NS(=O)(=O)c1ccc(CCNC(=[Se])NC(=O)c2ccc(I)cc2)cc1 [9e]" class_name="not fulfilled"
compound="NS(=O)(=O)c1cccc(NC(=[Se])NC(=O)c2ccc(Cl)cc2)c1 [8f]" class_name="not fulfilled"

----------
Biological target: UniProtKB A0A0M8MPA4
Sequence (A0A0M8MPA4 1-242): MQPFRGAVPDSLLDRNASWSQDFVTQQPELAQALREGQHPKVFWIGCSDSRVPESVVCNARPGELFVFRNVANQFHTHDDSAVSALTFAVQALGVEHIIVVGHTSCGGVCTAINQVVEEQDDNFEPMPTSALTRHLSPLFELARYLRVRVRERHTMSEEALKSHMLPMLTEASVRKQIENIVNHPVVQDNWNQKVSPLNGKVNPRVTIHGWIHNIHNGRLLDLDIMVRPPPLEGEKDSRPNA
Reported Ki by item:
Quantity measured: Ki (µM)

compound="O=C(NC(=[Se])Nc1c(F)c(F)cc(F)c1F)c1ccccc1 [16d]" measurement_unit=µM bound_sign=> reported=10
compound="O=C(NC(=[Se])Nc1ccc(S(=O)(=O)Nc2nccs2)cc1)c1ccccc1 [10a]" measurement_unit=µM bound_sign== reported=42.9
compound="O=C(NC(=[Se])Nc1ccccc1)c1cc(Br)cc(OC(F)(F)F)c1 [16b]" measurement_unit=µM bound_sign=> reported=10
compound="NS(=O)(=O)c1ccc(O)c(NC(=[Se])NC(=O)c2ccc(Cl)cc2)c1 [11f]" measurement_unit=µM bound_sign== reported=54.2
compound="Cc1cccc(C(=O)NC(=[Se])Nc2cc(S(N)(=O)=O)ccc2O)c1 [11j]" measurement_unit=µM bound_sign== reported=14.8
compound="O=C(NC(=[Se])Nc1ccc(S(=O)(=O)Nc2nccs2)cc1)c1cc(Br)cc(OC(F)(F)F)c1 [10b]" measurement_unit=µM bound_sign== reported=85.3
compound="CCCCCCCc1ccc(C(=O)NC(=[Se])Nc2ccc(S(=O)(=O)Nc3nccs3)cc2)cc1 [10c]" measurement_unit=µM bound_sign== reported=91.9
compound="NS(=O)(=O)c1ccc(O)c(NC(=[Se])NC(=O)c2ccc([N+](=O)[O-])cc2)c1 [11c]" measurement_unit=µM bound_sign== reported=91.2
compound=NS(=O)(=O)c1ccc(NC(=[Se])Nc2ccccc2)cc1 measurement_unit=µM bound_sign== reported=0.514
compound=NS(=O)(=O)c1cccc(NC(=[Se])Nc2ccc(F)cc2)c1 measurement_unit=µM bound_sign== reported=0.342
compound=COc1ccccc1NC(=[Se])NCCc1ccc(S(N)(=O)=O)cc1 measurement_unit=µM bound_sign== reported=0.525
compound=CCCCCCCc1ccc(C(=O)NC(=[Se])Nc2ccc(S(N)(=O)=O)cc2)cc1 measurement_unit=µM bound_sign== reported=78.2
compound="NS(=O)(=O)c1ccc(O)c(NC(=[Se])NC(=O)c2ccc(CCl)cc2)c1 [11h]" measurement_unit=µM bound_sign== reported=76.6
compound=NS(=O)(=O)c1ccc(NC(=[Se])Nc2ccc(F)cc2)cc1 measurement_unit=µM bound_sign== reported=0.965
compound="O=C(Nc1ccccc1)Nc1ccccc1F [14c]" measurement_unit=µM bound_sign=> reported=10
compound=NS(=O)(=O)c1ccc(NC(=[Se])Nc2ccccc2Cl)cc1 measurement_unit=µM bound_sign== reported=0.693
compound=NS(=O)(=O)c1ccc(CCNC(=[Se])Nc2ccc(Br)cc2)cc1 measurement_unit=µM bound_sign== reported=0.369
compound="NS(=O)(=O)c1ccc(O)c(NC(=[Se])NC(=O)c2ccc(I)cc2)c1 [11d]" measurement_unit=µM bound_sign== reported=7.5
compound=NS(=O)(=O)c1ccc(CCNC(=[Se])Nc2cccc(C(F)(F)F)c2)cc1 measurement_unit=µM bound_sign== reported=0.992
compound=NS(=O)(=O)c1cccc(NC(=[Se])NC(=O)c2ccccc2)c1 measurement_unit=µM bound_sign== reported=33.7
compound="O=C(NC(=[Se])Nc1ccccc1)c1ccccc1 [16a]" measurement_unit=µM bound_sign=> reported=10
compound="O=C(NC(=[Se])Nc1ccc(S(=O)(=O)Nc2nccs2)cc1)c1ccc(F)cc1 [10e]" measurement_unit=µM bound_sign== reported=80.3
compound=NS(=O)(=O)c1ccc(NC(=[Se])NC(=O)c2ccccc2)cc1 measurement_unit=µM bound_sign== reported=44.8
compound=NS(=O)(=O)c1ccc(NC(=[Se])NC(=O)c2ccc(CCl)cc2)cc1 measurement_unit=µM bound_sign== reported=67.7
compound=NS(=O)(=O)c1ccc(NC(=[Se])NC(=O)c2ccc(Br)cc2F)cc1 measurement_unit=µM bound_sign== reported=68.5
compound=NS(=O)(=O)c1ccc(CCNC(=[Se])Nc2ccccc2F)cc1 measurement_unit=µM bound_sign== reported=0.149
compound=NS(=O)(=O)c1ccc(NC(=[Se])NC(=O)c2ccc(/N=N/c3ccccc3)cc2)cc1 measurement_unit=µM bound_sign== reported=37
compound=NS(=O)(=O)c1cccc(NC(=[Se])NC(=O)c2cc(Br)cc(OC(F)(F)F)c2)c1 measurement_unit=µM bound_sign== reported=86.1
